target-under-test: glucagon receptor
assay-notes: cell-based or functional assay
Numbered stars: 1 amine (or outer) side, 2 acyl side, 3 side chain; on linkers, the order of the positions; unused ones are H or OH. Square brackets hold non-standard residues; d marks the D form. Primed or numbered codes have the meaning given here. Side chains are listed from the residue outwards. Ends that are not written are not given here. * marks the point of attachment. 40K‑TE PEG(3) = 40 kDa PEG bound to the Cys thiol via a thioether, made by reacting the free-thiol peptide with iodoacetic-functionalised PEG; 40K‑TE PEG″ = 40 kDa PEG bound to Cys via thioether made from an iodoacetyl-functionalised PEG; 20K‑TE PEG = 20 kDa PEG bound via thioether from iodoacetic-functioned PEG; γGlu = O=C(O)[C@H](CCC(=O)[*:2])N[*:1]; Palmitoyl = CCCCCCCCCCCCCCCC(=O)*; Aib = CC(C)(N)C(=O)O
metric-name: EC50 (nM) at glucagon receptor
Answer in nM, number only, no unit symbol.

Here is how some binders turned out for EC50 (nM) at glucagon receptor.
[
  {
    "binder": "H[Aib]QGTFTSDYSKYLDEK[Aib]AKEFVC(40K‑TE PEG(3))WLLDT-NH2 [peptide of SEQ ID NO: 52]",
    "result-units": "nM",
    "EC50 (nM) at glucagon receptor": 4.5
  },
  {
    "binder": "H[Aib]QGTFTSDK([γGlu-γGlu-Palmitoyl])SKYLD[Aib]RAAQDFVQWLMKTK[dE]-OH [peptide of SEQ ID NO: 37]",
    "result-units": "nM",
    "EC50 (nM) at glucagon receptor": 0.018
  },
  {
    "binder": "H[dS]QGTFTSDK([γGlu-Palmitoyl])SKYLDEQAAKEFIC(20K‑TE PEG)WLLDT-NH2 [peptide of SEQ ID NO: 44]",
    "result-units": "nM",
    "EC50 (nM) at glucagon receptor": 0.023
  },
  {
    "binder": "H[Aib]QGTFTSDYSKYLDEKRA[Aib]DFVC(40K‑TE PEG(3))WLLDT-NH2 [peptide of SEQ ID NO: 54]",
    "result-units": "nM",
    "EC50 (nM) at glucagon receptor": 0.939
  }
]

Now look at this one.
Query: EC50 (nM) at glucagon receptor; subject: H[Aib]QGTFTSDYSKYLD[Aib]KRA[Aib]EFVC(40K‑TE PEG″)WLLDT-NH2 [peptide of SEQ ID NO: 38]
0.141
